# Tested on: HOP-62 NSCLC
# assayMethodText: NCI-60 one-dose screen, 48 h
# conditionContext: 10 µM unless noted
# Description: Growth inhibition of the HOP-62 human Non-Small Cell Lung tumor cell line is measured as a screen for anti-cancer activity. Cells are grown in 96 well plates and exposed to the test compound for 48 hours. Compounds are tested at a single concentration, which is 10^-5 M for most compounds. The reported endpoint is percent growth (GI% or GIPRCNT), where numbers from 0 - 100% represent growth inhibition, and numbers from -100% - 0 represent cell death. […]
About 83,000 compounds went through this panel and 20% of them were active in at least one assay; those are over-represented in the sample as a whole. The source made the active and inactive calls. Rule for the calls: active = growth percent below 10; inactive = the rest.
Lab note: assign the record to one of active, inactive

What outcome does the record of this test show for `Oc1cccc(-c2nc(N3CCOCC3)c3c4c(sc3n2)CCCC4)c1` ?
inactive

Please let me know the test result on file for `CCN(CC)S(=O)(=O)c1ccc(OC)c(NC(=O)c2[nH]c(C)c3c2CCCCC3=O)c1` .
inactive

Name the outcome recorded for `CCCc1cc(=O)n2c(C(=O)Nc3ccc(F)cc3)c(C(=O)Nc3ccc(F)cc3)sc2n1` in the assay.
inactive

Per the records of this test, what outcome belongs to `O=C1c2cccc3cccc(c23)C(=O)N1CCCCN1CCN(CCCCOc2ccc(-c3nc4ccc(N5CCOCC5)cc4[nH]3)cc2)CC1` ?
inactive

Tell me the recorded outcome of this test for `O=C1/C(=C/C(Cl)=C/c2ccccc2)SC(=S)N1CCc1ccc(O)cc1` .
active

Assay result, entry `COc1ccc(-c2nn(-c3ccc(Cl)cc3)cc2-c2nc3ccccc3[nH]2)cc1` — outcome?
inactive

Could you please tell me the result logged for `COc1cc2nc(N3CCCC3)nc(NCCc3ccccc3)c2cc1OC` in this assay?
inactive

Please indicate how the test categorized `COc1cc(-c2nn(-c3ccc(Br)cc3)cc2C(=O)O)ccc1O` .
inactive

Please state the recorded outcome for this compound: COc1ccc(C2CC(c3ccc4ccccc4c3)=NN2/C=C2\SC(=S)N(NC(=O)Cc3ccccc3Nc3c(Cl)cccc3Cl)C2=O)cc1 (centres undefined)
inactive
